- experimental_target: 5-hydroxytryptamine receptor 4 (Rattus norvegicus, UniProt Q62758)
- Sequence (Q62758 whole entry): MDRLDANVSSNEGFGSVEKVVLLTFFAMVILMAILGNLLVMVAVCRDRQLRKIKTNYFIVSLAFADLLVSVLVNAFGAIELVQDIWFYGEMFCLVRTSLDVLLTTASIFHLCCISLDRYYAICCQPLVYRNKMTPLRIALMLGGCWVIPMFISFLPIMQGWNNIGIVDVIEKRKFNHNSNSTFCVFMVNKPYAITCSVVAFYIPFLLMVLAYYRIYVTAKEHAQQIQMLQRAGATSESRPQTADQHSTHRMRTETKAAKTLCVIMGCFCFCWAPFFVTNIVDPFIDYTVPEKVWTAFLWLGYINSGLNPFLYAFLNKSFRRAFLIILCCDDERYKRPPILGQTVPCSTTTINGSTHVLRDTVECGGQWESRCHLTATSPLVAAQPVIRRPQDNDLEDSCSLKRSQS
- test_summary: Compound was evaluated for the agonistic activity towards 5-hydroxytryptamine 4 receptor using the rat tunica muscularis mucosae (TMM) esophagus strip assay
measurement_label: EC50 (nM)

[P] COc1cc(N)c(Cl)cc1C(=O)NC1C2CC3CC1CN(C3)C2 (stereo in doubt)
[Q] COc1cc(N)c(Cl)cc1C(=O)NC1CCN2CCCC1C2 (stereo unspecified) [RENZAPRIDE]
[R] COc1cc(N)c(Cl)cc1C(=O)N[C@@H]1C2CC3CN(C2)CC31 (stereo partly specified)
Sort these compounds on EC50 so the largest reading comes first. Please respond by ranking the labels in the order requested.
P, Q, R

[P] COc1cc(N)c(Cl)cc1C(=O)N[C@H]1C2CC3CN(C2)CC31 (stereo partly specified)
[Q] COc1cc(N)c(Cl)cc1C(=O)NC1C2CC3CC1CN(C3)C2 (stereo in doubt; 1A)
Just curious, which one has the larger EC50 reading, P or Q ? Mark your selection by writing its label.
P

====

- experimental_target: 5-hydroxytryptamine receptor 3A (Rattus norvegicus)
- Sequence (P35563 whole entry): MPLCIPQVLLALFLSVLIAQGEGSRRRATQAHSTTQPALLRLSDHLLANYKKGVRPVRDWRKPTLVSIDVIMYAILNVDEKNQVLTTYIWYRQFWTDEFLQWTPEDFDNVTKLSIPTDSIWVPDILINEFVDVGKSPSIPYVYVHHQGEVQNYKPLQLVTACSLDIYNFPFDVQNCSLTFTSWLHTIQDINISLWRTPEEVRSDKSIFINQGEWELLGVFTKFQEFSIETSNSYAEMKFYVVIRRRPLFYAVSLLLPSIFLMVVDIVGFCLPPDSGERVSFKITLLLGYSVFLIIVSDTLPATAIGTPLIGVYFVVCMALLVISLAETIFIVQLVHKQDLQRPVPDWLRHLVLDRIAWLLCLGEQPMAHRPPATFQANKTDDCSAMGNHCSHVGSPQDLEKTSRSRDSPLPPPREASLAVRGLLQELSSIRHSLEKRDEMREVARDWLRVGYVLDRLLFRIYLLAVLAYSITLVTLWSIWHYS
- test_summary: Compound was evaluated […] for the antagonistic activity towards 5-hydroxytryptamine 3 receptor
pKi: −log10 of the molar value.
measurement_label: pKi

[
  {
    "compound": "COc1cc(N)c(Cl)cc1C(=O)NC1CCN2CCCC1C2 (stereo unspecified) [RENZAPRIDE]",
    "experimental_target": "5-hydroxytryptamine receptor 3A (Rattus norvegicus)",
    "pKi": 8.25
  },
  {
    "compound": "COc1cc(N)c(Cl)cc1C(=O)N[C@@H]1C2CC3CN(C2)CC31 (stereo partly specified)",
    "experimental_target": "5-hydroxytryptamine receptor 3A (Rattus norvegicus)",
    "pKi": 8.92
  },
  {
    "compound": "COc1cc(N)c(Cl)cc1C(=O)N[C@@H]1CN2CCC1CC2",
    "experimental_target": "5-hydroxytryptamine receptor 3A (Rattus norvegicus)",
    "pKi": 9.64
  }
]

[a] COc1cc(N)c(Cl)cc1C(=O)N[C@H]1C2CC3CN(C2)CC31 (stereo partly specified)
[b] COc1cc(N)c(Cl)cc1C(=O)NC1C2CC3CC1CN(C3)C2 (stereo in doubt)
[c] COc1cc(N)c(Cl)cc1C(=O)NC1C2CC3CC1CN(C3)C2 (stereo in doubt; 1A)
Sort the 3 compounds by pKi; largest first, smallest last. Please respond by ranking the labels in the order requested.
a, b, c
(a: 8.41, b: 8.05, c: 6.47)
